- experimental target: CpGSTD2 (Culex pipiens, UniProt H9M8E4)
- Sequence (H9M8E4 1-214): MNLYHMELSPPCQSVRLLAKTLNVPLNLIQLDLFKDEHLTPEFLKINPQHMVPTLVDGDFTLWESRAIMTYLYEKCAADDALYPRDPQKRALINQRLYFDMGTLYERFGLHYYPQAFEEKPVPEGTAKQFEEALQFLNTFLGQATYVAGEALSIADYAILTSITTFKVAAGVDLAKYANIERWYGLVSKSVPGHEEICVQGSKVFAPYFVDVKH
pIC50: −log10 of the molar value.
value kind: pIC50

> print(dat)
                                   compound  value.kind  quantitative.readout
1  CCCCCCSC[C@H](NC(=O)CC[C@H](N)C(=O)O)C(=O)NCC(=O)O [S-hexyl glutathione, S-hexylglutathione]       pIC50                  6.62
